All figures here come from patent US20200087248A1.

- targetOfAssay: hERG (Homo sapiens)
- Construct: purchased ThermoFisher; host or cells: hERG cell membrane supplied with the kit
- Sequence (Q12809 whole entry): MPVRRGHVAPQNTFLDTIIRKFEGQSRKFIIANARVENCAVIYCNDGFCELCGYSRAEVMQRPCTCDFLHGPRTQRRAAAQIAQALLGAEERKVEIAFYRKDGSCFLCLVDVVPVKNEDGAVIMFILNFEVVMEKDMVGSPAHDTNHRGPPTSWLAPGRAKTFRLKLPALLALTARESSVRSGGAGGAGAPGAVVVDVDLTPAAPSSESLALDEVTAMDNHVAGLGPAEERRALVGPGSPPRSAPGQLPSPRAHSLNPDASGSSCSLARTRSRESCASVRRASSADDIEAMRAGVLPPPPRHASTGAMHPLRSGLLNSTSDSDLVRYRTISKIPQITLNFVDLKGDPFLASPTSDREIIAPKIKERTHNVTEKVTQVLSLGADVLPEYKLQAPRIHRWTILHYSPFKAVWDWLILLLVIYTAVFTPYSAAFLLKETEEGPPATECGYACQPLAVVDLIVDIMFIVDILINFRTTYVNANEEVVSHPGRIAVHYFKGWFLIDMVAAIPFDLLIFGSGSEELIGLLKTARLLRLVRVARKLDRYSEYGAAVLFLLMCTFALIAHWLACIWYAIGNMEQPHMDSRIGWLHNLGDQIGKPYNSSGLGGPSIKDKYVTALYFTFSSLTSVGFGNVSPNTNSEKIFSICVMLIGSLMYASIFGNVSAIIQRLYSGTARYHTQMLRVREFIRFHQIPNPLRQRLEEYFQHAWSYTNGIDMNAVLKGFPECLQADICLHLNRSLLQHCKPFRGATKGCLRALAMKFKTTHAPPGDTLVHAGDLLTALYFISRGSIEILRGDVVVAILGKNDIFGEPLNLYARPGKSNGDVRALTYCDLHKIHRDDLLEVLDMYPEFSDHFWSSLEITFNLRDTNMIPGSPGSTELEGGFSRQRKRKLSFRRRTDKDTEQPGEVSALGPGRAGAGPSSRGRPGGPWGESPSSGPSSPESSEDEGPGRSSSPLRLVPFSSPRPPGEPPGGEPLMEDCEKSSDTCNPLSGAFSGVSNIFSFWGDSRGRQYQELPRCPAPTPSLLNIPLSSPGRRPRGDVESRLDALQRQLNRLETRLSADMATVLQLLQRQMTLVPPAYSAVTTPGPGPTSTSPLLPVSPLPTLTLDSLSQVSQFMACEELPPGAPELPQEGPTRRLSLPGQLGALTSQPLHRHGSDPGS
- assayText: hERG fluorescence polarization inhibition experiment
- conditionNotes: human, probe tracer having high affinity to hERG (kit tracer), hERG cell membrane, 25° C. 2 hours, read-out: hERG (IC50 range, competitive binding vs tracer)
Structures can show the parent of a compound that is named as a salt.
metricName: IC50 at 2 h

*Q* Record request: IC50 at 2 h value, item NC/C(=C/F)COc1ccc2c(c1)CNC2=O [TM77-Z, trifluoroacetate]
*A* > 10 µM

----------
- targetOfAssay: MAO-B (Homo sapiens, UniProt P27338)
- Construct: purchased Sigma Aldrich
- Sequence (P27338 whole entry): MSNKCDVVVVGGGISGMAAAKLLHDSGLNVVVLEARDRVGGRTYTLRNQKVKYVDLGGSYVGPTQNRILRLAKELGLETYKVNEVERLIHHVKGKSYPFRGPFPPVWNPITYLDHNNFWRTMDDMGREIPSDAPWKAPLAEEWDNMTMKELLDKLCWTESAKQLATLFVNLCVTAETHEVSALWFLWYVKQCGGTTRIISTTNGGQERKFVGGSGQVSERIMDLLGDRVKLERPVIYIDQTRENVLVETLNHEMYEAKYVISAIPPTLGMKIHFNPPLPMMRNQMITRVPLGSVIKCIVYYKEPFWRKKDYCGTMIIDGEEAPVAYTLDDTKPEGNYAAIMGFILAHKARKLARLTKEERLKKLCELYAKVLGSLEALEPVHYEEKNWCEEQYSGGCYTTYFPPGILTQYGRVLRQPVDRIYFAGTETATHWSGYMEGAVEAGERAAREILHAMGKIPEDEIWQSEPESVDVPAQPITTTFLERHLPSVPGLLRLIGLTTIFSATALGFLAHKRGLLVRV
- assayText: Inhibition of the enzymatic activity of MAO-B
- Type: biochemical
- conditionNotes: range of IC50 from inhibition rates at 10 μM, 1 μM and 0.1 μM; read-out: IC50, inhibition against the enzymatic activity of MAO-B
Structures can show the parent of a compound that is named as a salt.
metricName: IC50

*Q* IC50 of NC/C(=C/F)COc1ccc(C(=O)NCc2ccccn2)cc1 [TM112-Z, trifluoroacetate] on MAO-B (Homo sapiens, UniProt P27338)?
*A* > 0.1 µM

*Q* Next record, please: NC/C(=C\F)COc1ccc(C(=O)NC2CCOCC2)cc1 [TM76-E, trifluoroacetate]
*A* > 1 µM

*Q* Next record, please: NC/C(=C/F)COc1ccc2c(c1)CCNC2=O [TM26-Z, trifluoroacetate]
*A* > 1 µM

*Q* Next record, please: NC/C(=C\F)COc1ccc(C(=O)NCc2ccccn2)cc1 [TM112-E, trifluoroacetate]
*A* > 0.1 µM

*Q* Next record, please: NC/C(=C\F)COc1ccc2c(c1)C(=O)CC2 [TM7-E, trifluoroacetate]
*A* > 10 µM

*Q* Next record, please: NC/C(=C/F)COc1ccc(C(=O)NC2CCOCC2)cc1 [TM76-Z, trifluoroacetate]
*A* > 0.1 µM

*Q* Next record, please: NC/C(=C/F)COc1ccc2c(c1)C(=O)CC2 [TM7-Z, trifluoroacetate]
*A* > 10 µM
